target: DNA polymerase alpha catalytic domain (hPolα, hPolαCD) (human, UniProt P09884 335-1257); assay: BLI
Sequence (P09884 335-1257): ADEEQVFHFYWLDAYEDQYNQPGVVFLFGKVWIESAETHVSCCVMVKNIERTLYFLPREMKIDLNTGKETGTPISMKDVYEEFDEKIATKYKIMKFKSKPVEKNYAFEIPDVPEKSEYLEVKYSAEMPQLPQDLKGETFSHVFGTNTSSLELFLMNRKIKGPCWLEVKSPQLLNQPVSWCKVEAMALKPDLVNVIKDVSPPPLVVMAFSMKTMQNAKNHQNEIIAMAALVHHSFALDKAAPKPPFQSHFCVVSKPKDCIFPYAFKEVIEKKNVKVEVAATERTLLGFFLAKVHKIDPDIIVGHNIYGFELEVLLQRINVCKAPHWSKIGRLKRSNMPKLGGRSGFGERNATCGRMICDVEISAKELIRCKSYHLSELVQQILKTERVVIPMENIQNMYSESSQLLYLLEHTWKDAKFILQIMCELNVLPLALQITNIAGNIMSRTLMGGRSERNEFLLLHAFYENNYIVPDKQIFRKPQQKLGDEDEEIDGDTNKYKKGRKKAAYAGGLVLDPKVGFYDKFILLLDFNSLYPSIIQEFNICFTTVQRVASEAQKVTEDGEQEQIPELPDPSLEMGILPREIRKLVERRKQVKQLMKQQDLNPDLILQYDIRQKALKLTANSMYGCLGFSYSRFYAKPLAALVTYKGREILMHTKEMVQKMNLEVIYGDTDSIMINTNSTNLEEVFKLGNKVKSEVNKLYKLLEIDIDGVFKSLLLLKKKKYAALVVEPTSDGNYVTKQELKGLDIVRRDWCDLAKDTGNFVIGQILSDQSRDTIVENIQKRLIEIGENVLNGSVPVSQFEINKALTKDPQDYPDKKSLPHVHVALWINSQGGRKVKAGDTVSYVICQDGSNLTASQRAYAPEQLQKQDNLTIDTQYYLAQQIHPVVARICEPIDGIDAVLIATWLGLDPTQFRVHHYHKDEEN
pKd: −log10 of the molar value.
Label satisfied when pKd is at or above 6; otherwise label not satisfied.

Study these solved cases before continuing.
>>> category_label("T8:P9 (D11) (dsDNA, primer 3' ddC) DNA 1: AATACATAAACGCTCCAGGCAAT DNA 2: GCCTGGAGCGC")
"not satisfied"
>>> category_label("T6:P12 (R8-D3) (mixed, primer nt 1-8 RNA, nt 9-11 DNA, 3' ddC) DNA: AATACATAAGCGCTCCAGGCAAT RNA: GCCUGGAGCGC")
"satisfied"
>>> category_label("T7:P12 (R8-D3) (mixed, primer nt 1-8 RNA, nt 9-11 DNA, 3' ddC) DNA: AATACATAATCGCTCCAGGCAAT RNA: GCCUGGAGCGC")
"satisfied"

Now for a further binder.
Exercise: Could you please find out whether T6:P9 (D11) (dsDNA, primer 3' ddC) DNA 1: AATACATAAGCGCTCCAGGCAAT DNA 2: GCCTGGAGCGC has pKd that meets 6 or exceeds it?
Key: satisfied
